Cited source: ChEMBL document CHEMBL1157827

- System: Plasma
- procedureSummary: Drug level in Sprague-Dawley rat plasma at 3 mg/kg, po administered as single dose by LC/MS/MS analysis
- Assay type: ADME, organism-based
- Parameters: dose 3 mg/kg, route oral
- experimentalSetup: in vivo
endpoint: concentration

Q: # get_value(readout='concentration', item= COc1cc(N2CCN(C3CCN(c4cccc5cccnc45)CC3)CC2)c2ncccc2c1 )
Ans: 200 nM

###

- measuredTarget: 5-hydroxytryptamine receptor 1A (Homo sapiens)
- Sequence (P08908 whole entry): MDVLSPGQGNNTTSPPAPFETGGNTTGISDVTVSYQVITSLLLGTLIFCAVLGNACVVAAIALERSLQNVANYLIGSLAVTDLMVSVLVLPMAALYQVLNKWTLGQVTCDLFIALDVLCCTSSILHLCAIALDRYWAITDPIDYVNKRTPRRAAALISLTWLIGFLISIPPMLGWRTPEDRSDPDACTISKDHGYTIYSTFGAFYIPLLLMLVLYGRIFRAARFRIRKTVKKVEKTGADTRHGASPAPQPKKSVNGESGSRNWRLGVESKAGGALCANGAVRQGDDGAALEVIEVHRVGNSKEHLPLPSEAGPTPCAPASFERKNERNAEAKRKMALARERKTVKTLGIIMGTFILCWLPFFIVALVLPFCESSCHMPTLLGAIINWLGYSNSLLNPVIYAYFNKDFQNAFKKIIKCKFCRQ
- procedureSummary: biochemical
- Description: Displacement of [3H]8-OH-DPAT from human 5HT1A receptor expressed in CHO cells
pKi: −log10 of the molar value.
Use yes (1) when the recorded pKi is no lower than 8; use no (0) when it is lower.

COc1cc(N2CCN(C3CCN(c4ccc(F)c5cc(C(F)(F)F)cnc45)CC3)CC2)c2ncccc2c1 = yes (1)
COc1cc(N2CCN(C3CCN(c4c(F)ccc5cccnc45)CC3)CC2)c2ncccc2c1 = no (0)
COc1cc(N2CCN(C3CCN(c4ccc(F)c5c(C)cc(C)nc45)CC3)CC2)c2ncccc2c1 = no (0)
COc1cc(N2CCN(C3CCN(c4cccc5cc(F)cnc45)CC3)CC2)c2ncccc2c1 = yes (1)

Could you now look at the following compound, please?
Q: Hi team, for COc1cc(N2CCN(C3CCN(c4cc(F)cc5cccnc45)CC3)CC2)c2ncccc2c1 , is the recorded pKi at or above 8?
Ans: yes (1)
